MEASUREMENT NOTES: Rat IV/PO PK study, Method A
Format: in vivo, male Sprague Dawley (SD) rats
CONDITIONS: male, Sprague Dawley, plasma, PO, 2 mg/kg, *obtained under method 3A
Description: Pharmacokinetics (PK) study was conducted on male Sprague Dawley (SD) rats by two delivery routes intravenous (IV) and/or oral gavage (PO). Rats in IV route (n=3) were free access to food and water. Rats in PO route (n=3) were fasted overnight and fed at 4 hrs post dosing. […] Pharmacokinetics parameters, including elimination half life (t1/2) (IV), area under the curve (AUC) and oral bioavailability (F %), etc. were calculated by non-compartmental model using WinNonlin.
READOUT KIND: Cmax (ng/mL)
Give the quantity in ng/mL, number only.

Qu. Form field: reported Cmax of Cc1cc(-n2nc3c(c2-n2ccn(-c4ccc5c(cnn5C)c4F)c2=O)[C@H](C)N(C(=O)c2cc4cc([C@H]5CCOC(C)(C)C5)ccc4n2[C@@]2(c4noc(=O)[nH]4)C[C@@H]2C)CC3)cc(C)c1F [Compound C-5, reference compound]
Ans. 573
